Attribution: the supplement of paper PMC6555819

System: RARa:RXR (NR concentration 270 nM, RXRa partner concentration 90 nM)
assayInfo: PBM binding z-score (relative to random genomic background probes); higher = stronger binding; sequences stand for … in GC…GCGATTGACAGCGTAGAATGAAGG

>  <seqString>
CAAACTAGGTCACCGGAAGGTAAAAGTCCGCATG

>  <PBM binding z-score>
3.44

$$$$
>  <seqString>
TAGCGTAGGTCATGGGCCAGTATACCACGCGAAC

>  <PBM binding z-score>
3.4

$$$$
>  <seqString>
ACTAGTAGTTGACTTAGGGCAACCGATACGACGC

>  <PBM binding z-score>
0.555

$$$$
>  <seqString>
ACTAGTTGGACAGCTGAGGTCACACACAATTCGG

>  <PBM binding z-score>
4.57

$$$$
>  <seqString>
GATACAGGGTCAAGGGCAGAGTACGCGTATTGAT

>  <PBM binding z-score>
4.22

$$$$
>  <seqString>
CAAACTAGGTCAAAGGTCAAAGTCGAGCCAACCA

>  <PBM binding z-score>
8.8

$$$$
>  <seqString>
TCTAGTTGGTCAAAGGTCACACATTCGAAATGCG

>  <PBM binding z-score>
6.86

$$$$

---

Tested on: PPARa:RXRa (NR concentration 270 nM, RXRa partner concentration 90 nM)
assayInfo: PBM binding z-score (relative to random genomic background probes); higher = stronger binding; sequences stand for … in GC…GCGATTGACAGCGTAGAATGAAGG

>  <seqString>
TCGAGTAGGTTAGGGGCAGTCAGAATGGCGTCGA

>  <PBM binding z-score>
1.11

$$$$
>  <seqString>
CCTACTGGGCCATCAGGCCATTGATATCAACGTT

>  <PBM binding z-score>
0.569

$$$$
>  <seqString>
CGTCCAAGATCATAGGAGGTCAGTGAAGACAGAT

>  <PBM binding z-score>
2.69

$$$$
>  <seqString>
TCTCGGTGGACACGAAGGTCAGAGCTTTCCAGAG

>  <PBM binding z-score>
2.04

$$$$
>  <seqString>
TCGAATAGGTTAGTCGGGGCATTCAGCCAACATA

>  <PBM binding z-score>
1.29

$$$$
>  <seqString>
CCTCGGAGCACAACAGGAGGTCAGAGCTGCCAGA

>  <PBM binding z-score>
1.65

$$$$
>  <seqString>
CTCGAAAGGTCTGTTGAGGTGAGTATACGGATAA

>  <PBM binding z-score>
0.697

$$$$
>  <seqString>
CGTCAAAGTTCAACTAAGGTAATGTAAAGCACGC

>  <PBM binding z-score>
5.15

$$$$
>  <seqString>
CCTTACGGGTCACCCCAGGTTATAGCATCGGAGT

>  <PBM binding z-score>
5.01

$$$$
>  <seqString>
TCTATTAGTTGATTAGGGCAAGCGAAACAGCGGA

>  <PBM binding z-score>
0.756

$$$$
>  <seqString>
ATCTCTAGGTAACAAGCTCAGTGAAAGAGAGGAC

>  <PBM binding z-score>
0.394

$$$$
>  <seqString>
TCGAGTAGGTTACCAATAGGGCATTCAGCTTTCT

>  <PBM binding z-score>
1.36

$$$$
>  <seqString>
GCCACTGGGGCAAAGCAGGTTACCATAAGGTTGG

>  <PBM binding z-score>
1.67

$$$$
>  <seqString>
CCTGACGGGTCACTCCAGGTTATAGCATCGGAGT

>  <PBM binding z-score>
3.79

$$$$
>  <seqString>
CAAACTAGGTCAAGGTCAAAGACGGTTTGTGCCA

>  <PBM binding z-score>
6.32

$$$$
>  <seqString>
ATCGAAACGTCGAGGTGAGTATAGAGAAAGGGAA

>  <PBM binding z-score>
-0.00336

$$$$
>  <seqString>
CCGACCGGGGCAAGGTTACCATAACGCACAGCCA

>  <PBM binding z-score>
1.3

$$$$
>  <seqString>
TAGCCTAGGGCATGCGGGCCAGTATAGTGTCGGC

>  <PBM binding z-score>
-0.591

$$$$
>  <seqString>
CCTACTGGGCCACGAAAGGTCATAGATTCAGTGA

>  <PBM binding z-score>
4.78

$$$$
>  <seqString>
AGAATGAGGTTTCCAAAGATCAGGGAAACGCTTG

>  <PBM binding z-score>
-0.139

$$$$
>  <seqString>
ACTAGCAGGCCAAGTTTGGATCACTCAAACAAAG

>  <PBM binding z-score>
-0.385

$$$$
>  <seqString>
TTACCAAGGTGAACGTCGTTGATCCCTCTGTAGA

>  <PBM binding z-score>
1.99

$$$$
>  <seqString>
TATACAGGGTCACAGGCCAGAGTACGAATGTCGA

>  <PBM binding z-score>
6.06

$$$$
>  <seqString>
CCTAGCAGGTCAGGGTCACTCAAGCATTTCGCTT

>  <PBM binding z-score>
4.61

$$$$
>  <seqString>
CCGAGCAGGCCAATCTGGGTCACTCAAGGCTTGA

>  <PBM binding z-score>
2.65

$$$$
>  <seqString>
AGAATGAGATTAAGATCAGGGAAACAGAATACAT

>  <PBM binding z-score>
-0.494

$$$$
>  <seqString>
ACACGGAGGACAAAGGTCAGAGCTACGCCAGTGA

>  <PBM binding z-score>
5.18

$$$$
>  <seqString>
TCATATAGGTAATATAGGTGAAAGTCGGCATCTA

>  <PBM binding z-score>
2.92

$$$$
>  <seqString>
CGTCCAAGGTAAGCAGGTCAGTGAAAGCGACGTG

>  <PBM binding z-score>
1.25

$$$$
>  <seqString>
GCATATAGGTAATACAAGGTGACAGTCCGATTGT

>  <PBM binding z-score>
1.16

$$$$
>  <seqString>
AGTCAAAGTTCACTAGGTCACGTAAGATTCAGCT

>  <PBM binding z-score>
6.04

$$$$
>  <seqString>
CGTCCCAGGTCAGAGAGGTCAGTGAATGCCGAGT

>  <PBM binding z-score>
3.75

$$$$
>  <seqString>
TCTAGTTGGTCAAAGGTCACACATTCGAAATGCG

>  <PBM binding z-score>
6.86

$$$$
>  <seqString>
AGAACGAGGGCACGCTGAGTTGATAGCAGAGTAG

>  <PBM binding z-score>
2.36

$$$$
>  <seqString>
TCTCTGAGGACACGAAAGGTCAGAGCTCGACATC

>  <PBM binding z-score>
3.53

$$$$
>  <seqString>
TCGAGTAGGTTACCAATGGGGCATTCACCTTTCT

>  <PBM binding z-score>
1.55

$$$$
>  <seqString>
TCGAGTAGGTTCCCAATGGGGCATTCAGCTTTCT

>  <PBM binding z-score>
-0.101

$$$$
>  <seqString>
CCTATTTGGTCAAGGTCACACACGCTATAGGTAC

>  <PBM binding z-score>
4.33

$$$$
>  <seqString>
CCTACTGGGCCAAAAAGGTCATTGAAGCCGATAA

>  <PBM binding z-score>
4.79

$$$$
>  <seqString>
CCTAGCAGGCTAGGGTCACTCAAGCATTTCGCTT

>  <PBM binding z-score>
3.67

$$$$
>  <seqString>
TCTTGTAGATCAACAGCAGGTTAAGAAAGATCGA

>  <PBM binding z-score>
0.609

$$$$
>  <seqString>
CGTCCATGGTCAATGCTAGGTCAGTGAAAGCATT

>  <PBM binding z-score>
0.49

$$$$
>  <seqString>
GCGACTGGCGCAAAGCAGGTTACCATAAGGTTGG

>  <PBM binding z-score>
-0.182

$$$$
>  <seqString>
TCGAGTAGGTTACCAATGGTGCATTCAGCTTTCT

>  <PBM binding z-score>
0.801

$$$$
>  <seqString>
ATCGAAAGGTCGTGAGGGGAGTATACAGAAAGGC

>  <PBM binding z-score>
5.08

$$$$
>  <seqString>
CGAACTAGGTCAAGGACAGTGTATCTCCGCACGC

>  <PBM binding z-score>
4.9

$$$$
